- system.tested: T1, human MSLN-R2-his protein (human, UniProt Q13421 391-486)
- T1 construct: Region 2 of human mesothelin, made in HEK293E cells, His-tagged; also called human MSLN-R2 protein; hMSLN-R2-his; not shown: His tag
- experiment: ELISA on coated MSLN-R2; antibody 0.001 nM
reported.metric: OD450 (OD450)
The reply should contain only the number, in OD450.

// solved cases for OD450 follow
binder	measurement.units	quantitative.result
S009-F8-32.3 (antibody, human IgG1, kappa, V domains shown) VH: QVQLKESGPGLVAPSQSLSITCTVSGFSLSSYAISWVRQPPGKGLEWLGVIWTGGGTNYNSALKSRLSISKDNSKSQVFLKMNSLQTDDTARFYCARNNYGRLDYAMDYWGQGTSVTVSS VL: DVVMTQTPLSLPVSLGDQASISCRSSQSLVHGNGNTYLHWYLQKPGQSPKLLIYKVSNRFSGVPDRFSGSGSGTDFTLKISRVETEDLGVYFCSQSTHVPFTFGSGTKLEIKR	OD450	0.04
S009-F8-13.8 (antibody, human IgG1, kappa, V domains shown) VH: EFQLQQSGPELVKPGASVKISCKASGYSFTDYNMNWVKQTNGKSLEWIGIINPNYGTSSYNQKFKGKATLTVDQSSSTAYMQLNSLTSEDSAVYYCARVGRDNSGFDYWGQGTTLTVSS VL: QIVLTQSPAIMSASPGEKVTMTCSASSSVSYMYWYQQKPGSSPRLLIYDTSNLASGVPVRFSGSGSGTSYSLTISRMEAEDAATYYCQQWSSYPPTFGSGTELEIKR	OD450	0.05
S009-F8-33.12 (antibody, human IgG1, kappa, V domains shown) VH: EVQLQQSGAELVKPGASVKLSCTASAFNIKDYYMHWVKQRTEQGLEWIGRIDPEDGETKYAPKFQGKATITADTSSNTAYLQLSSLTSEDTAVYYCASGSGTGAMDYWGQGTSVTVSS VL: DIVMTQSQKFMSTSVGDRVSITCKASQNVRTAVGWYQQKPGQSPKALIYLASNRHTGVPDRFTGSGSGTDFTLTISNVQSEDLADYFCLQHWNSPYTFGGGTKLVIKR	OD450	0.04
S009-F8-31.22 (antibody, human IgG1, kappa, V domains shown) VH: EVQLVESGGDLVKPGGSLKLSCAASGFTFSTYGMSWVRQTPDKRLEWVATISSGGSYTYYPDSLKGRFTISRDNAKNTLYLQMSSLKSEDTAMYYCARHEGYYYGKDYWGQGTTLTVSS VL: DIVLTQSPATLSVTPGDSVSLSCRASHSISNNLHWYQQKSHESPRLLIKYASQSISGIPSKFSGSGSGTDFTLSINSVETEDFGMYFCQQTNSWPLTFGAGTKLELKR	OD450	0.04

Turning now to a further binder:
The binder listed as S009-F8-22.23 (antibody, human IgG1, kappa, V domains shown) VH: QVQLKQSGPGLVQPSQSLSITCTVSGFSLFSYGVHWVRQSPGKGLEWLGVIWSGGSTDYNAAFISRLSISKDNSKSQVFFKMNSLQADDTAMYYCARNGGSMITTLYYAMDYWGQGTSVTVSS VL: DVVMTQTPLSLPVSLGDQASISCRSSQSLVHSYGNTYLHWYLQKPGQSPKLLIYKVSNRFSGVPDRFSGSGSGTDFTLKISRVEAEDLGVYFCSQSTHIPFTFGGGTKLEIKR has a reported OD450 of 0.05
